# System: UACC-257
# experiment: NCI tumour cell line growth inhibition, 48 h
The source made the active and inactive calls. Rule as the data show it: active = GI50 up to about 1.1 µM and inactive = higher.
The following compounds are shown together with reported GI50 values.

The examples below pair each entry with its known result.
Cc1ccccc1C(=O)Oc1ccc(Oc2ccccc2)cc1 :: > 100 µM (inactive)
CCOC(=O)C(C(=O)OCC)=C1NC2(c3ccccc3Nc3ccc(C)cc32)C(C#N)S1 (stereo not drawn) :: 11.3 µM (inactive)
Cc1cc2nc3c(C#N)c(C)c(CCCl)c(Cl)n3c2cc1C :: 2.23 µM (inactive)
Oc1cc(O)c2c(c1)O[C@H](c1cc(O)c(O)c(O)c1)[C@@H](O)C2 [GALLOCATECHIN] :: > 100 µM (inactive)
COC(=O)C(=O)C(C(=O)C(=O)Nc1ccccc1C(N)=O)c1nc2ccc([N+](=O)[O-])cc2nc1O (stereo not drawn) :: > 100 µM (inactive)
O=S(=O)(N/C(=N\O)Nc1ccc(Cl)cc1)c1ccccc1 :: 10.5 µM (inactive)
CN1N=C(Nc2ccccc2)Sc2c1cnn(-c1ccccc1)c2=O :: > 100 µM (inactive)
N#C/C(=C\c1ccc(C(O)P(=O)(O)O)cc1)C(N)=O (stereo not drawn) :: > 100 µM (inactive)

Query string: So what does the record say about GI50 for COc1ccc(C(c2ccccc2)N2C(=O)CCC2C(=O)O)cc1OC (stereo not drawn) ?
Result string: > 100 µM (inactive)

Query string: So what does the record say about GI50 for CC(=O)n1nc(-c2[nH]c(C)c(-c3nn(C(C)=O)c(=S)o3)c2C)oc1=S ?
Result string: > 100 µM (inactive)

Query string: So what does the record say about GI50 for Cc1cc(C)c(S(=O)(=O)N[C@@H](/C=C(\Br)CO)C(C)C)c(C)c1 ?
Result string: 21.5 µM (inactive)

----------
# Test system: NCI-H226
# experiment: NCI tumour cell line growth inhibition, 48 h
Activity calls are given as the source filed them. No stated cut-off is given here; in the data, active = GI50 up to about 1.1 µM and inactive = higher.
observation.type: GI50

The examples below pair each entry with its known result.
CC(=O)OC1COC(n2c(=S)n(-c3ccccc3)c(=O)c3ccccc32)C(OC(C)=O)C1OC(C)=O (stereo not given) :: > 100 µM (inactive)
CCc1nc2ccccc2c(=O)n1/N=C(\N=N\c1ccc(Cl)cc1)c1ccccc1 :: 21.8 µM (inactive)
CC1(C)N=C(N)N=C(N)N1CCCCc1ccccc1 :: 6.47 µM (inactive)

Query string: Value wanted: GI50 (NCI-H226) of entry CN1CC(c2ccccc2)N(CCCCN2CC(c3ccccc3)N(C)CC2c2ccccc2)CC1c1ccccc1 (stereo not given)
Result string: 95.7 µM (inactive)

Query string: Value wanted: GI50 (NCI-H226) of entry COC[C@@H](/N=C/N1CCc2cc(OC)c(OC)cc2C1)C(C)(C)C
Result string: > 100 µM (inactive)

----------
The following molecules are shown together with reported GI50 values.
# System: SK-MEL-5
# experiment: NCI tumour cell line growth inhibition, 48 h
Calls of active or inactive are those of the source. Cut-off read from the data, not from the text of the source: active = GI50 up to about 1.1 µM and inactive = higher.

The examples below pair each entry with its known result.
NC(CSc1nc2ccccn2c1[N+](=O)[O-])C(=O)O (stereo not drawn) :: > 100 µM (inactive)
COc1cc(-c2ccc(/N=N/c3c(S(=O)(=O)O)cc4cc(S(=O)(=O)O)cc(N)c4c3O)c(OC)c2)ccc1/N=N/c1c(S(=O)(=O)O)cc2cc(S(=O)(=O)O)cc(N)c2c1O :: > 100 µM (inactive)
COc1cc(C2[C@H]3C(=O)N(c4ccc(Cc5ccc(N6C(=O)[C@@H]7ON(c8ccccc8)C(c8cc(OC)c(OC)c(OC)c8)[C@@H]7C6=O)cc5)cc4)C(=O)[C@H]3ON2c2ccccc2)cc(OC)c1OC (stereo partly drawn) :: 38.5 µM (inactive)
COc1cc2c(c(OC)c1OC)C(=O)CC2N (stereo not drawn) :: > 100 µM (inactive)

Query string: So what does the record say about GI50 for CC(C)CCC[C@@H](C)[C@H]1CC[C@H]2[C@@H]3CC[C@H]4C[C@@H](CCC=C(c5cc(Cl)c(O)c(C(=O)O)c5)c5cc(Cl)c(O)c(C(=O)O)c5)CC[C@]4(C)[C@H]3CC[C@]12C ?
Result string: > 100 µM (inactive)

Query string: So what does the record say about GI50 for CCN(CC)S(=O)(=O)c1ccc2[nH]c(NC(=O)OC)nc2c1 ?
Result string: 98.9 µM (inactive)

Query string: So what does the record say about GI50 for O=C(Nc1ccc(Cl)cc1)c1cc(S(=O)(=O)Nc2n[nH]c(=O)n2-c2ccccc2)c(S)cc1Cl ?
Result string: > 100 µM (inactive)

Query string: So what does the record say about GI50 for O=C(O)C(C(C(=O)O)P(=O)(O)O)P(=O)(O)O (stereo not drawn) ?
Result string: > 100 µM (inactive)

Query string: So what does the record say about GI50 for O=C(O)CS(=O)(=O)C(c1ccccc1)c1ccccc1 ?
Result string: > 100 µM (inactive)

Query string: So what does the record say about GI50 for Nc1cc2c3c(cccc3c1)C(=O)N(CCN1CCN(CCN3C(=O)c4cccc5cc(N)cc(c45)C3=O)CC1)C2=O ?
Result string: > 100 µM (inactive)

----------
# System: LXFL 529
# experiment: NCI tumour cell line growth inhibition, 48 h
Active and inactive are the calls of the source. No stated cut-off is given here; in the data, active = GI50 up to about 1.1 µM and inactive = higher.
A correct response names exactly one class from Yes (active), No (inactive)

COc1ccc(OC)c(CCc2ccccc2CC(=O)O)c1 :: No
CC[N+]1(C)CCC(O)(/C=C/c2ccccc2)C(C(=O)/C=C/c2ccccc2)C1 (stereo unspecified) :: No
Cc1ccc(NC(=O)CC(=O)n2nc(-c3ccccc3)c(/N=N\c3ccccc3[N+](=O)[O-])c2-c2ccccc2)cc1 :: No
CC(C)C(Nc1c2ccccc2nc2ccccc12)C(=O)O (stereo unspecified) :: No
COC[C@@H](/N=C/N1CCc2cc(OC)c(OC)cc2C1)C(C)(C)C :: No

Query string: Dear all, I need the recorded test outcome for C1=CC2CCC1CN2CCC1CNc2ccccc21 (stereo unspecified) , thank you.
Result string: No

Query string: Dear all, I need the recorded test outcome for CCC[S+]([O-])c1nc(COC(=O)NC)c(COC(=O)NC)n1C (stereo unspecified) , thank you.
Result string: No

----------
# Tested on: PC-3
# experiment: NCI tumour cell line growth inhibition, 48 h
Active and inactive are the calls of the source. Rule as the data show it: active = GI50 up to about 1.1 µM and inactive = higher.
The following molecules are shown together with reported GI50 values.

COc1ccc(C[C@H]2COC(=O)[C@@H]2Cc2ccc(Br)cc2)cc1OC :: 15.6 µM (inactive)
O=C(/C=C/c1ccco1)c1cccc(C(=O)/C=C/c2ccco2)n1 :: 13.2 µM (inactive)
C=CC[C@H]1[C@H](O[Si](C)(C)C(C)(C)C)C=CC(=O)[C@@H]1CC(=O)N(Cc1ccccc1)Cc1ccccc1 :: 10.4 µM (inactive)
COc1ccc2c(c1OC)C(C(Cl)(Cl)Cl)N1CCc3cc4c(cc3C1=C2)OCO4 (stereo not given) :: 24.7 µM (inactive)
COc1ccc(-c2c(-c3ccccc3)c(C)nc3nc(SC)nc(SC)c23)cc1OC :: 4.29 µM (inactive)

Continue with the next molecule.
Query string: Value wanted: GI50 (PC-3) of entry O=[N+]([O-])C(=C(Cl)Cl)C(Cl)=C(Cl)Cl
Result string: 0.778 µM (active)

----------
# System: NCI-H23
# experiment: NCI tumour cell line growth inhibition, 48 h
Activity calls are given as the source filed them. Rule as the data show it: active = GI50 up to about 1.1 µM and inactive = higher.
observation.type: GI50

The examples below pair each entry with its known result.
O=[N+]([O-])/C(C(Cl)=C(Cl)Cl)=C(\N1CCOCC1)n1nnc2ccccc21 :: 16.7 µM (inactive)
CCCc1nn(C)c(CCC(=O)N(Cc2ccccc2)Cc2ccccc2)c1CC :: > 100 µM (inactive)
CCOC(=O)CCC1(C(=O)OCC)CCCC1=O (stereo not given) :: > 100 µM (inactive)
COc1ccc(-c2c(-c3ccccc3)c(C)nc3nc(SC)nc(SC)c23)cc1OC :: 28.8 µM (inactive)

Query string: So what does the record say about GI50 for Cc1ccc2ccccc2c1NC1=NCCO1 ?
Result string: 90.4 µM (inactive)

Query string: So what does the record say about GI50 for COc1ccc(C[C@H]2COC(=O)[C@@H]2Cc2ccc(Br)cc2)cc1OC ?
Result string: 9.06 µM (inactive)

Query string: So what does the record say about GI50 for CC(=O)C1=C(C)N(c2ccc(C)cc2)C2(O)C=CC(O)=C3C(=O)c4ccccc4C(=O)C312 (stereo not given) ?
Result string: 21.1 µM (inactive)

Query string: So what does the record say about GI50 for CN(C)CC1CCCCCCCCCCCCC(CN(C)C)C1=O (stereo not given) ?
Result string: 17.7 µM (inactive)

Query string: So what does the record say about GI50 for CCC12CCCN(Cc3ccccc3)C1c1c(n(C)c3ccccc13)C(C(=O)OC)C2 (stereo not given) ?
Result string: 77.1 µM (inactive)

Query string: So what does the record say about GI50 for CNC1=CC(=O)C2=C(C1=O)[C@H]1CC[C@]3(C)C(=O)CC[C@H]3[C@@H]1CC2 ?
Result string: 5.13 µM (inactive)
